# protocol.text: UV-vis and fluorescence spectroscopy
# Assay type: physicochemical
# test.conditions: 10 mM HEPES, pH 7.3
Criterion: λabs meeting or surpassing 600 nm. Met: y. Not met: n.

| compound | qualitative.label |
| --- | --- |
| O=C1OC2(c3ccc(N4CC(F)(F)C4)cc3Oc3cc(N4CC(F)(F)C4)ccc32)c2ccccc21 [dye 7, JF525] | n |
| O=C([O-])c1ccccc1-c1c2cc(F)c(=[N+]3CC(F)(F)C3)cc-2oc2cc(N3CC(F)(F)C3)c(F)cc12 [dye 10, Janelia Fluor 526] | n |
| C[Si]1(C)c2cc(N3CCC3)ccc2C2(OC(=O)c3ccccc32)c2ccc(N3CCC3)cc21 [dye 2, JF646] | y |
| O=C1OC2(c3ccc(N4CCC4)cc3Oc3cc(N4CCC4)ccc32)c2ccccc21 [dye 6, JF549] | n |
| C[Si]1(C)c2cc(N3CC(F)C3)ccc2C2(OC(=O)c3ccccc32)c2ccc(N3CC(F)C3)cc21 [dye 3, JF635] | y |
| O=C([O-])c1ccccc1-c1c2cc(F)c(=[N+]3CCC3)cc-2oc2cc(N3CCC3)c(F)cc12 [dye 9, Janelia Fluor 552] | n |

###

# protocol.text: Quantum yield determination
# Assay type: physicochemical
# test.conditions: absolute, integrating sphere
reported.metric: ϕ (fluorescence quantum yield)

| compound | reported.metric | endpoint.result |
| --- | --- | --- |
| O=C([O-])c1ccccc1-c1c2cc(F)c(=[N+]3CCC3)cc-2oc2cc(N3CCC3)c(F)cc12 [dye 9, Janelia Fluor 552] | ϕ (fluorescence quantum yield) | 0.83 |
| C[Si]1(C)c2cc(N3CC(F)C3)ccc2C2(OC(=O)c3ccccc32)c2ccc(N3CC(F)C3)cc21 [dye 3, JF635] | ϕ (fluorescence quantum yield) | 0.56 |
| O=C1OC2(c3ccc(N4CCC4)cc3Oc3cc(N4CCC4)ccc32)c2ccccc21 [dye 6, JF549] | ϕ (fluorescence quantum yield) | 0.88 |
| O=C([O-])c1ccccc1-c1c2cc(F)c(=[N+]3CC(F)(F)C3)cc-2oc2cc(N3CC(F)(F)C3)c(F)cc12 [dye 10, Janelia Fluor 526] | ϕ (fluorescence quantum yield) | 0.87 |
| C[Si]1(C)c2cc(N3CCC3)ccc2C2(OC(=O)c3ccccc32)c2ccc(N3CCC3)cc21 [dye 2, JF646] | ϕ (fluorescence quantum yield) | 0.54 |
| CC1(C)c2cc(N3CC(F)(F)C3)ccc2C2(OC(=O)c3ccccc32)c2ccc(N3CC(F)(F)C3)cc21 [dye 5, JF585] | ϕ (fluorescence quantum yield) | 0.78 |
| O=C1OC2(c3ccc(N4CC(F)(F)C4)cc3Oc3cc(N4CC(F)(F)C4)ccc32)c2ccccc21 [dye 7, JF525] | ϕ (fluorescence quantum yield) | 0.91 |
| CN(C)c1ccc2c(c1)[Si](C)(C)c1cc(N(C)C)ccc1C21OC(=O)c2ccccc21 [dye 1, tetramethyl-Si-rhodamine] | ϕ (fluorescence quantum yield) | 0.41 |
| CC1(C)c2cc(N3CCC3)ccc2C2(OC(=O)c3ccccc32)c2ccc(N3CCC3)cc21 [dye 4, JF608] | ϕ (fluorescence quantum yield) | 0.67 |

###

# protocol.text: UV-vis and fluorescence spectroscopy
# Type: physicochemical
# test.conditions: 10 mM HEPES, pH 7.3
Entries annotated with measured εw

| mol | εw |
| --- | --- |
| CC1(C)c2cc(N3CC(F)(F)C3)ccc2C2(OC(=O)c3ccccc32)c2ccc(N3CC(F)(F)C3)cc21 | 1,500 M^−1cm^−1 |
| C[Si]1(C)c2cc(N3CCC3)ccc2C2(OC(=O)c3ccccc32)c2ccc(N3CCC3)cc21 | 5,000 M^−1cm^−1 |
| O=C([O-])c1ccccc1-c1c2cc(F)c(=[N+]3CCC3)cc-2oc2cc(N3CCC3)c(F)cc12 | 95,000 M^−1cm^−1 |
| O=C1OC2(c3ccc(N4CCC4)cc3Oc3cc(N4CCC4)ccc32)c2ccccc21 | 101,000 M^−1cm^−1 |
| CC1(C)c2cc(N3CCC3)ccc2C2(OC(=O)c3ccccc32)c2ccc(N3CCC3)cc21 | 99,000 M^−1cm^−1 |
| O=C1OC2(c3ccc(N4CC(F)(F)C4)cc3Oc3cc(N4CC(F)(F)C4)ccc32)c2ccccc21 | 94,000 M^−1cm^−1 |
| O=C([O-])c1ccccc1-c1c2cc(F)c(=[N+]3CC(F)(F)C3)cc-2oc2cc(N3CC(F)(F)C3)c(F)cc12 | 19,000 M^−1cm^−1 |
| C[Si]1(C)c2cc(N3CC(F)C3)ccc2C2(OC(=O)c3ccccc32)c2ccc(N3CC(F)C3)cc21 | ~400 M⁻¹ cm⁻¹ |

###

Entries annotated with measured KL-Z (lactone-zwitterion equilibrium constant)
# protocol.text: Determination KL-Z and εmax
# Format: physicochemical
# test.conditions: 1:1 (v/v) dioxane:water, 0.01% triethylamine
reported.metric: KL-Z (lactone-zwitterion equilibrium constant)

| mol | operator.symbol | endpoint.result |
| --- | --- | --- |
| CN(C)c1ccc2c(c1)[Si](C)(C)c1cc(N(C)C)ccc1C21OC(=O)c2ccccc21 | = | 0.0034 |
| O=C1OC2(c3ccc(N4CCC4)cc3Oc3cc(N4CCC4)ccc32)c2ccccc21 | = | 3.5 |
| CC1(C)c2cc(N3CCC3)ccc2C2(OC(=O)c3ccccc32)c2ccc(N3CCC3)cc21 | = | 0.091 |
| O=C([O-])c1ccccc1-c1c2cc(F)c(=[N+]3CC(F)(F)C3)cc-2oc2cc(N3CC(F)(F)C3)c(F)cc12 | = | 0.0050 |
| C[Si]1(C)c2cc(N3CC(F)C3)ccc2C2(OC(=O)c3ccccc32)c2ccc(N3CC(F)C3)cc21 | < | 0.0001 |
| CC1(C)c2cc(N3CC(F)(F)C3)ccc2C2(OC(=O)c3ccccc32)c2ccc(N3CC(F)(F)C3)cc21 | < | 0.0001 |
| O=C([O-])c1ccccc1-c1c2cc(F)c(=[N+]3CCC3)cc-2oc2cc(N3CCC3)c(F)cc12 | = | 0.70 |
| C[Si]1(C)c2cc(N3CCC3)ccc2C2(OC(=O)c3ccccc32)c2ccc(N3CCC3)cc21 | = | 0.0012 |
| O=C1OC2(c3ccc(N4CC(F)(F)C4)cc3Oc3cc(N4CC(F)(F)C4)ccc32)c2ccccc21 | = | 0.068 |

###

# protocol.text: UV-vis and fluorescence spectroscopy
# Type: physicochemical
# test.conditions: 10 mM HEPES, pH 7.3
Criterion: λem meeting or surpassing 600 nm. Met: MET. Not met: NOT MET.

| compound | qualitative.label |
| --- | --- |
| C[Si]1(C)c2cc(N3CC(F)C3)ccc2C2(OC(=O)c3ccccc32)c2ccc(N3CC(F)C3)cc21 [dye 3, JF635] | MET |
| O=C([O-])c1ccccc1-c1c2cc(F)c(=[N+]3CC(F)(F)C3)cc-2oc2cc(N3CC(F)(F)C3)c(F)cc12 [dye 10, Janelia Fluor 526] | NOT MET |
| O=C([O-])c1ccccc1-c1c2cc(F)c(=[N+]3CCC3)cc-2oc2cc(N3CCC3)c(F)cc12 [dye 9, Janelia Fluor 552] | NOT MET |
| CC1(C)c2cc(N3CCC3)ccc2C2(OC(=O)c3ccccc32)c2ccc(N3CCC3)cc21 [dye 4, JF608] | MET |
| O=C1OC2(c3ccc(N4CCC4)cc3Oc3cc(N4CCC4)ccc32)c2ccccc21 [dye 6, JF549] | NOT MET |
| C[Si]1(C)c2cc(N3CCC3)ccc2C2(OC(=O)c3ccccc32)c2ccc(N3CCC3)cc21 [dye 2, JF646] | MET |
| O=C1OC2(c3ccc(N4CC(F)(F)C4)cc3Oc3cc(N4CC(F)(F)C4)ccc32)c2ccccc21 [dye 7, JF525] | NOT MET |
